tested on: Klebsiella pneumoniae; test: Antibacterial activity against Klebsiella pneumonia 3026 assessed as inhibition of bacterial growth measured after 18 hrs by microplate reader; assay type: functional; details: read-out: MIC100
In this section we review reported MIC values for a set of compounds.
Could you give me the number in µg/mL? Just the number is fine.

// known answers, use as guide
- molecule: "Cc1cc(OC(=O)CCCCC[P+](c2ccccc2)(c2ccccc2)c2ccccc2)c(C(C)C)cc1-c1ccccc1.[Br-]"
  measure: "MIC"
  val: 16
- molecule: "Cc1cc(OC(=O)CCC[P+](c2ccccc2)(c2ccccc2)c2ccccc2)c(C(C)C)cc1-c1ccccc1.[Br-]"
  measure: "MIC"
  val: 32
- molecule: "Cc1cc(OC(=O)CCCCCCC[P+](c2ccccc2)(c2ccccc2)c2ccccc2)c(C(C)C)cc1-c1ccccc1.[Br-]"
  measure: "MIC"
  val: 16
- molecule: "Cc1cc(OC(=O)CCCCCC[P+](c2ccccc2)(c2ccccc2)c2ccccc2)c(C(C)C)cc1-c1ccccc1.[Br-]"
  measure: "MIC"
  val: 8
- molecule: "Cc1cc(OC(=O)CCCC[P+](c2ccccc2)(c2ccccc2)c2ccccc2)c(C(C)C)cc1-c1ccccc1.[Br-]"
  measure: "MIC"
  val: 32

Lab note: Cc1cc(OC(=O)CCCCCCCC[P+](c2ccccc2)(c2ccccc2)c2ccccc2)c(C(C)C)cc1-c1ccccc1.[Br-] gave MIC of 64
